Could you please report measured pEC50 for the items listed next?
test.target: T1, MHC class I molecule A*0101 (biotin (bound via biotin to streptavidin-coated plates))
T1 construct: also called A1; HLA-A1
method.description: iTopia affinity assay (ED50), peptide titration on plate-bound MHC
Method: The 9 mers were tested for Peptide Binding, Off Rate and Affinity using iTopia Epitope Discovery System in accordance with the manufacturer's instructions. Briefly, 96 well microtitre plates coated with MHC molecules representing different MHC alleles are used to identify candidate peptides. […] Determinations are performed in duplicate using an ELISA plate reader and included allele specific positive controls. […]
Numbers only, as −log10 of the molar value.

Example results:
VPTDLPAYV [5T4 9 mer peptide 43 (VPTDLPAYV)]: 4.70
LASNHFLYL [5T4 9 mer peptide 109 (LASNHFLYL)]: 4.70
LTYVSFRNL [5T4 9 mer peptide 125 (LTYVSFRNL)]: 5.52

Please give pEC50 for each item listed below.
1. FSSSAPFLA [5T4 9 mer peptide 21 (FSSSAPFLA)]
2. QTSYVFLGI [5T4 9 mer peptide 177 (QTSYVFLGI)]

output:
[4.70, 4.70]

Please give pEC50 for each item listed below.
1. LTCAYPEKM [5T4 9 mer peptide 161 (LTCAYPEKM)]
2. HMEGYHYRY [5T4 9 mer peptide 198 (HMEGYHYRY)]

output:
[4.70, 5.52]
